tested on: SW1990; assay: Cytotoxicity against human SW1990 cells assessed as reduction in cell viability; type: functional, cell-based
pIC50: −log10 of the molar value.
measured.attribute: pIC50

>>> print(df.to_string())
                                   molecule  target_or_system  measured_attribute  result_comparator  obs_value
0  O=C1C=C[C@H](O)[C@@H]2[C@@H]1C[C@@]13SS[C@]4(C[C@H]5C(=O)CC[C@H](O)[C@H]5N4C1=O)C(=O)N23            SW1990               pIC50                  =       5.19
1  Nc1ccn([C@@H]2O[C@H](CO)[C@@H](O)C2(F)F)c(=O)n1 [GEMCITABINE]            SW1990               pIC50                  =       5.66
2  O=C1C[C@H](O)[C@H](O)[C@@H]2[C@H]1C[C@@]13SS[C@]4(C[C@H]5[C@@H]([C@@H](O)C=C[C@@H]5O)N4C1=O)C(=O)N23            SW1990               pIC50                  <       4.70
3  O=C1C=C[C@H](O)[C@@H]2[C@@H]1C[C@@]13SS[C@]4(C[C@H]5[C@@H]([C@@H](O)C=C[C@@H]5O)N4C1=O)C(=O)N23            SW1990               pIC50                  =       5.23
4  CO[C@H]1CC(=O)[C@@H]2C[C@@]34SS[C@]5(C[C@H]6C(=O)C[C@H](O)[C@H](O)[C@H]6N5C3=O)C(=O)N4[C@@H]2[C@H]1O            SW1990               pIC50                  <       4.70
5  O=C1N2[C@H]3[C@H](C[C@]24SS[C@]12C[C@H]1[C@@H]([C@@H](O)C=C[C@@H]1O)N2C4=O)[C@@H](O)C=C[C@@H]3O            SW1990               pIC50                  =       5.68
6  CO[C@H]1CC(=O)[C@@H]2C[C@@]34SS[C@]5(C[C@@H]6C(=O)C=C[C@H](O)[C@H]6N5C3=O)C(=O)N4[C@@H]2[C@H]1O            SW1990               pIC50                  =       5.22
